# TEST_TARGET: HLA-A*0301 (human)
# ASSAY_DETAILS: inhibition of 125I probe peptide binding to purified HLA
Where no end group is shown, it is not given here. [ ]: non-standard residue; d: D form. Abu = CC[C@H](N)C(=O)O
Measured pIC50 of individual entries
Entry type: numeric. Quantity: pIC50, the -log10 of concentration in molar units.

Here's what some known entries look like.
TILWKDIFHK (synthetic peptide) [Her2/neu.166]
6.59
VVFGILIKR (synthetic peptide; the 9-mer and the 10-mer carry the same source label Her2/neu.669) [Her2/neu.669 (AA 9)]
7.00
QLRSLTEILK (synthetic peptide) [Her2/neu.141]
7.26
IVKGGVLIQR (synthetic analog peptide) [Her2/neu.148.V2]
6.56
[Abu]VN[Abu]SQFLR (synthetic analog peptide; also called BVNBSQFLR) [Her2/neu.528.B1B4]
6.75

Exercise: What value of measured pIC50 is listed for TVLWKDIFHR (synthetic analog peptide) [Her2/neu.166.V2R10] ?
Solution: 5.07

Exercise: Reported pIC50, binder CVNCSQFLR (synthetic peptide) [Her2/neu.528] : ____
Solution: 5.13

Exercise: Fill in the blank: the reported pIC50 of HVVPWDQLFR (synthetic analog peptide) [Her2/neu.478.V2] is ____.
Solution: 5.13

The values you see were collected from patent US20040018971A1.
